# System: K4 kissing-loop RNA reporter;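 note: bound reporter read as fluorescence of individual clusters on recovered sequencing chips by microscopy, with normalized cluster intensities fitted with a binding model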
# assay.explanation: apparent KD of K4 kissing-loop reporter; higher = weaker reporter binding
# condition.details: Eterna round: R107; input ligand: tryptophan 2.4 mM
parameter.measured: apparent KD of K4 kissing-loop reporter
Number plus unit, in that order.

• GUAGGAUGAGGAGGAGGAUGAAUUACUGAAGGAGCGCAUAUAAAUGCAGGUAGGUCGCGGUAAAGAAGUAUAGUGAUGUUAUAUA [SSArgA.G] = 329 nM
• CCAUUCUUUUACGAUACCAGUCUAAUAUAUUGAAUCAAAACCCUCGCCGAGUGAUGUUCGGACCCUUGGCAGCGUCUGCGAGAGG [xwxxtkmullin] = 498 nM
• ACUUUGGGCCCAGUGAUGUUGGGUCCAGAUACCAGACGUAAAUAAGUCCCUUGGCAGCUGCGUACUAACUAGCACAGGAGGGUCC [Edleaes] = 141 nM

# input Give the reported apparent KD of K4 kissing-loop reporter for this sequence. UGGAGUGCCUGGUCGUCACUAUGCCAACCACGAGGACCGGUACGGCCGCCACUCGUGAGGGAUAUUCAGAAAGUGAUGUUUUUUG [theeternabot_exclusion_KL_Trp_A_1]
# output 403 nM

# input Give the reported apparent KD of K4 kissing-loop reporter for this sequence. GCGGCGGGCCAAGGAUAUAUUUUGGAGUGAUGUUGUUCAUUUAUUUGAGCUAGUGAUGUUGGUCGAAUAGAAGGUGGCCCGCCGC [whbob_Ex_FMNB__2th219]
# output 46 nM

# input Give the reported apparent KD of K4 kissing-loop reporter for this sequence. AAAAUAAACCAGUGAUGUUGGUAUCCGGAUACCAGCGAUAAUCAUCGCCCUUGGCAGCCGCGGACGUACAAAAUAAGUACGUCCU [MatMod 14 - Jieux - Same State - Theophylline A]
# output 182 nM

---

# Tested on: MS2 coat protein
# assay.explanation: apparent KD of MS2 coat protein; designed switch direction (-1 OFF switch, 1 ON switch): -1; higher = weaker reporter binding
# condition.details: Eterna round: R95; input ligand: microRNA oligo, concentration not stated
parameter.measured: apparent KD of MS2 coat protein (nM)
Could you give me the number in nM? Just the number is fine.

Known apparent KD of MS2 coat protein results, listed for orientation:
• AGUAGGUCUACCUUGGUGGAUCUGCAUUUAGGCAGGUGUACAUGAGGAUCACCCAUGUCCUCAUUUGCUCGUCUUAU [JL turnoff v2 99.29] (puzzle: Sensor v3, turn-off variant 2) = 488
• GGUCGGCGAGGAUAUACAUGAGGAUCACCCAUGUGAUUUAGUGCACGCGUACGUGUACGUAGAAGGCGCUGACG [JL-ex3-3.27 salish99 mod] (puzzle: Exclusion 3) = 14
• CGUUGGCGAGGAUAUACAUGAGGAUCACCCAUGUGAGAGAAAAAAGUGAGGAAGAAAAGUAGAAGGCGCUGACC [salish99_ex3_r3_049] (puzzle: Exclusion 3) = 42.7
• AAGGAUAGAGGAUAUACAUAGAUACAGGUUCAUGUAGAACUACAUGAGGAUCACCCAUGUAGAAGGCUAUCCUA [Fiskers Ex 2 - 8] (puzzle: Exclusion 2) = 20.8

# input Give the reported apparent KD of MS2 coat protein for this sequence. CAUGGAUGUGAGCCGCAUUACAUGAGGAUCACCCAUGUCAACAAGCUUUUUGCUUGUCUUACGCGGCGGCAUCAAAA [Geonso] (puzzle: Sensor v3, turn-off variant 1)
# output 9.86

Every entry's value here was drawn from the supplement of paper PMC9170038.
